- Tested on: MDA-MB-231 breast
- Experiment summary: NCI-60 one-dose screen, 48 h (100 = growth as untreated, 0 = no growth, -100 = all killed)
- Details: 10 µM
The panel holds about 83,000 compounds, 20% with a hit somewhere; the sample as a whole holds those more often.
Define the label as fulfilled when growth is strictly less than 90% and as not fulfilled in all remaining cases.

These recorded examples may help you get a feel for the data.
Molecule | Tested on | Class
Nc1ncc(-c2ccc(C(F)(F)F)cc2)c(NC2CCCCCC2)n1 | MDA-MB-231 breast | fulfilled
COc1cc2ccnc(C=O)c2cc1OC | MDA-MB-231 breast | fulfilled
Oc1cc(O)c(Br)cc1Br | MDA-MB-231 breast | not fulfilled
Cc1cc(O)c(C2=NN(c3ccc(S(N)(=O)=O)cc3)C(c3ccc(N(C)C)cc3)C2)c(C)c1Cl (stereo not given) | MDA-MB-231 breast | not fulfilled
Cc1ccc(C)c2c1sc1nc3n[nH]c(N)c3c(=N)n12 | MDA-MB-231 breast | not fulfilled

Task item: Could you please tell me whether growth recorded for COc1ccc(-c2ccc(-c3ccc(C(=N)N)c(F)c3)s2)cc1 is less than 90%?
Reply: fulfilled

Task item: Then Cc1ccc(NC(=O)/C=N/O)cc1C ?
Reply: not fulfilled

Task item: Then Cc1ccc(-n2nnc3c(sc4ccccc43)c2=O)cc1 ?
Reply: fulfilled

Task item: Then CCN(CC)CCOC(=O)c1ccc(N=Nc2ccc(O)c(OC)c2)cc1 ?
Reply: not fulfilled

###

Examples of compounds with documented growth follow.
- System: KM12 colon
- Experiment summary: NCI-60 one-dose screen, 48 h (100 = growth as untreated, 0 = no growth, -100 = all killed)
- Details: 10 µM
The panel holds about 83,000 compounds, 20% with a hit somewhere; the sample as a whole holds those more often.
Express it in %; write the number only.

Recorded results for 4 compounds are shown here.
Compound | Tested on | Result
CCOC(=O)c1sc(NC(=O)c2cc(OC)c(OC)c(OC)c2)nc1C | KM12 colon | 99.3
N#Cc1ccc(-n2cnc(NC(=O)[C@H]3CCN(C#N)C3)c2)cc1 | KM12 colon | 8.31
CCOC(=O)c1c(O)c2cc(-c3ccccc3)nc(OCC)c2c(=O)n1C | KM12 colon | 104
COc1cc(-c2cc(-c3ccc(C)cc3)nc3nc(N)[nH]c(=O)c23)ccc1Oc1ccnc2cc(Cl)ccc12 | KM12 colon | 67

Task item: Can you look up the measured growth of CCOC(=O)/C(C#N)=C(/C)C1CC1 for me?
Reply: 106

Task item: Then C[N+]1=C(/C=C/c2ccc(I)cc2)C(C)(C)c2ccccc21 ?
Reply: 88.9

Task item: Then Cc1nn2c(/C=C3/C(=O)Nc4ccc(Cl)cc43)c(-c3ccccc3)nc2s1 ?
Reply: 59.1

Task item: Then COc1ccc(-c2nnc(SCC(=O)c3ccccc3)o2)cc1 ?
Reply: 98.3

Task item: Then C=C[C@]1(C)C=C2C(=O)[C@@]3(O)OC(=O)[C@@]4(CCCC(C)(C)[C@H]34)[C@@]2(O)CC1 ?
Reply: 8.33

Task item: Then COc1ccc(CCc2nc3cc(-c4c(C)noc4C)ccc3n2CCN2CCOCC2)cc1 ?
Reply: 33.6

Task item: Then Cc1ccc(-c2cc(C(=O)Nc3ccc(S(=O)(=O)N4CCCCC4)cc3)[nH]n2)c(O)c1 ?
Reply: 45.1

Task item: Then O=C(COCc1c(-c2ccccc2)no[n+]1[O-])Nc1nc(-c2ccc(Cl)cc2)cs1 ?
Reply: 101

###

- Tested on: SNB-19 CNS
- Experiment summary: NCI-60 one-dose screen, 48 h (100 = growth as untreated, 0 = no growth, -100 = all killed)
- Details: 10 µM
This is part of a sample that, as a whole, favours compounds with a hit. Of some 83,000 tested, about 20% had one in any assay.
Quantity measured: growth (%)
Express it in %; write the number only.

Recorded results for 3 compounds are shown here.
Substance smiles | Value units | growth
Cc1cc(C)c(/C=C2\C(=O)Nc3ccc(NC(=O)CCCCCCC(=O)NO)cc32)[nH]1 | % | 31.2
COCCOC(=O)NC(=O)Nc1ccc(/C(=N/O)c2ccc(Cl)cc2)cc1 | % | 31.4
COc1cc(OC)cc(-c2n/c(=C\c3c(O)[nH]c4ccc(OC)cc34)cc3c2=Nc2ccccc2-3)c1 | % | 78

Task item: Can you look up the measured growth of Cc1ccc(C)c(S(=O)(=O)NC2c3ccccc3Oc3ccccc32)c1 for me?
Reply: 102

###

Examples of compounds with documented growth follow.
- Tested on: K-562 leukemia
- Experiment summary: NCI-60 one-dose screen, 48 h (100 = growth as untreated, 0 = no growth, -100 = all killed)
- Details: 10 µM
About 83,000 compounds went through this panel and 20% of them were active in at least one assay; those are over-represented in the sample as a whole.
Express it in %; write the number only.

Recorded results for 3 compounds are shown here.
Compound | growth / %
CC(=O)Oc1c(C)c(C)c2c(c1C)CCC(C)(CC(=O)OCCCCCCCCCCC[P+](c1ccccc1)(c1ccccc1)c1ccccc1)O2 (stereo unspecified) | -33.9
COCCOC(=O)NC(=O)Nc1ccc(/C(=N/O)c2ccc(Cl)cc2)cc1 | 6.7
O=C(Nc1cccc(Cl)c1)OCC(COC(=O)Nc1cccc(Cl)c1)(COC(=O)Nc1cccc(Cl)c1)[N+](=O)[O-] | 26.4

Task item: API: value(readout= growth, system= K-562 leukemia, query= CC(=O)/C(=C\c1ccc(Cl)cc1)c1ccccc1 )
Reply: 8.97

Task item: Then CN(C)CCCN(Cc1ccccc1O)C(=S)Nc1ccc(Cl)cc1 ?
Reply: 97.5

Task item: Then CC(=O)Oc1ccc(C2=Cc3ccc(OC(C)=O)cc3OC2C)cc1 (stereo unspecified) ?
Reply: 28.4

###

- System: HCT-15 colon
- Experiment summary: NCI-60 one-dose screen, 48 h (100 = growth as untreated, 0 = no growth, -100 = all killed)
- Details: 10 µM
The panel holds about 83,000 compounds, 20% with a hit somewhere; the sample as a whole holds those more often.
Examples of compounds with documented growth follow.
Express it in %; write the number only.

Compound | Value units | Result
O=[N+]([O-])c1cc2ncccc2c2ncccc12 | % | 71.9
COc1ccc(/C=C2\SC(=S)N(CCCN3CCOCC3)C2=O)c(OC)c1 | % | 91.9
Cc1nnc2c3nnc(-c4ccc(Cl)cc4)n3c3ccccc3n12 | % | 97.4
O=C(OCc1ncc(-c2ccc(C(F)(F)F)cc2)c(NC2CCCCCC2)n1)c1c(F)c(F)c(F)c(F)c1F | % | 89.3
CCN(CC)c1ccc(/C=C/C2=[N+](C)c3ccccc3C2(C)C)c(C)c1 | % | 10.5
Nc1ccc(C2=CC(c3ccc(Cl)cc3)N3C=CSC3=N2)cc1 (centres undefined) | % | -57.7
CC(=O)Nc1nc(C)c(C(=O)N/N=C/c2cccn2C)s1 | % | 106
Cn1c(N)c(N=Cc2ccccc2)c(=O)n(C)c1=O | % | 103
COc1ccc(C(C)=O)cc1N1C(=O)C2C(C1=O)C1(c3ccccc3)C(=O)C2(c2ccccc2)C(c2ccc(C)cc2)=C1c1ccc(C)cc1 (centres undefined) | % | 25.3
O=C(Nc1cccc(Cl)c1)Nc1cc2ncncc2cc1OCc1cccc(F)c1 | % | 0.775

Task item: Can you look up the measured growth of COc1ccc(C2C=C(c3ccc(OC)c(OC)c3)N=C3SC=CN32)c(Br)c1 (centres undefined) for me?
Reply: 41.9

Task item: Then N#C/C(=C/c1cc([N+](=O)[O-])ccc1Cl)C(N)=O ?
Reply: 83.4

Task item: Then Cc1cc(Nc2cccc(F)c2)nc(NCc2ccccc2)n1 ?
Reply: 15.6

Task item: Then CCOC(=O)C(CCC1=NC(C)(C)CC(C)O1)C(=O)OCC (centres undefined) ?
Reply: 46

Task item: Then CCOC(=O)Nc1ccc2c(c1)C(=O)N(CCOC)c1ccccc1O2 ?
Reply: 26.1

Task item: Then O=C1CC[C@@H](C(=O)N[C@H]2CSSC[C@@H](C(=O)N/C=C/c3ccc(O)cc3)NC(=O)[C@H](Cc3ccccc3)NC(=O)[C@@H]3CCCN3C(=O)[C@@H]3CCCN3C2=O)N1 ?
Reply: 97

Task item: Then O=C(O)CNS(=O)(=O)c1ccc(OCCOc2ccc(S(=O)(=O)NCC(=O)O)cc2)cc1 ?
Reply: 96

Task item: Then O=C(NNc1nc(N2CCCC2)nc(N2CCCC2)n1)c1ccccc1 ?
Reply: 108

###

- Test system: K-562 leukemia
- Experiment summary: NCI-60 one-dose screen, 48 h
- Details: 10 µM
The panel holds about 83,000 compounds, 20% with a hit somewhere; the sample as a whole holds those more often. The source made the active and inactive calls. The calls were made as follows: active = growth percent below 10; inactive = the rest.
Select the matching outcome among 1 (active), -1 (inactive)

These recorded examples may help you get a feel for the data.
Molecule | Class
COc1ccc(Cn2cc3c(c2-c2cc(OC)c(OC)c(OC)c2)CCc2cnoc2-3)cc1N | -1
Oc1ccc(Cn2cc3c(c2-c2ccccc2)CCc2cnoc2-3)cc1 | -1
Nc1ccccc1NC(=O)CCCCCCC(=O)Nc1ccc2c(c1)/C(=C/c1ccc[nH]1)C(=O)N2 | -1

Task item: Dear all, I need the recorded test outcome for Cc1cn(C(=O)/C(Cl)=C(/Cl)C(=O)O)c2ccccc12 , thank you.
Reply: -1

Task item: Then CCN(CC)CC(O)CNc1ccnc2cc(Cl)c(Cl)cc12 (stereo not given) ?
Reply: -1

Task item: Then COc1ccc(C(=O)/C=C/c2cc(-c3ccc4c(c3)OCO4)n[nH]2)cc1OC ?
Reply: -1

Task item: Then CC(CNC(Cc1ccccc1)c1ccccc1)NC(Cc1ccccc1)c1ccccc1 (stereo not given) ?
Reply: 1

Task item: Then COc1ccc(-c2cc(/C=C/C(=O)c3ccc(N)cc3)[nH]n2)cc1OC ?
Reply: -1

Task item: Then CC(C)/C=N/NC(N)=S ?
Reply: -1

Task item: Then FC(F)(F)c1ccc(-c2cnc(Cl)nc2NC2CCCCCC2)cc1 ?
Reply: -1
